# System: pigweed (Amaranthus retroflexus)
# assay explanation: Test A postemergence pigweed
# Assay type: in vivo
# particulars: 125 g ai/ha, 0 to 100 scale, 0 is no effect, 100 is complete control
Kindly supply the reported Plant response rating, Pigweed values for the records listed here.
Answers are plain numbers.

compound: O=C1NCCC(c2ccccc2)C1C(=O)Nc1ccccc1C(F)(F)F (racemic) [Compound 2]
assay target: pigweed (Amaranthus retroflexus)
parameter measured: Plant response rating, Pigweed
value measured: 0
--
compound: O=C1NCCC(c2ccc(F)c(F)c2)C1C(=O)Nc1ccccc1F (racemic) [Compound 1]
assay target: pigweed (Amaranthus retroflexus)
parameter measured: Plant response rating, Pigweed
value measured: 0
--
compound: O=C(Nc1ccccc1C(F)(F)F)C1C(=O)N(Cc2ccccc2)CCC1c1ccc(F)cc1 (centres unmarked) [Compound 51]
assay target: pigweed (Amaranthus retroflexus)
parameter measured: Plant response rating, Pigweed
value measured: 0

Quick batch: Plant response rating, Pigweed for everything below.
1. O=C1NCCC(c2cccc(OC(F)(F)F)c2)C1C(=O)Nc1cccc(F)c1F (racemic) [Compound 39]
2. O=C1NCCC(c2ccc(F)c(F)c2)C1C(=O)Nc1ccccc1C(F)(F)F (racemic) [Compound 6]
3. O=C1NCCC(c2cccc(C(F)F)c2)C1C(=O)Nc1ccccc1F (centres unmarked) [Compound 48]
4. O=C1NCCC(c2ccc(F)cc2)C1C(=O)Nc1ccccc1C(F)(F)F (racemic) [Compound 4]
5. O=C1NCCC(c2cccc(C(F)(F)F)c2)C1C(=O)Nc1ccccc1Cl (racemic) [Compound 17]

### Response
0
0
0
0
0

---

# Tested on: pigweed (Amaranthus retroflexus)
# assay explanation: Test A preemergence pigweed
# Format: in vivo
# particulars: Amaranthus retroflexus, pre-emergence, 240 h, 500 g ai/ha, 0 to 100 scale, 0 no effect, 100 complete control, read-out: Pigweed plant response rating
parameter measured: pest or weed control at 500 g/ha (%)
Numbers only, in %.

molecule: O=C1NCC[C@H](c2cccc(Cl)c2)[C@H]1C(=O)Nc1cccc(F)c1F
pest or weed control at 500 g/ha (%): 10

molecule: O=C1NCC[C@H](c2ccc(C(F)(F)F)cc2)[C@H]1C(=O)Nc1cccc(F)c1F
pest or weed control at 500 g/ha (%): 50

molecule: O=C1NCC[C@H](c2cccc(C(F)(F)F)c2)[C@H]1C(=O)Nc1cccc(F)c1F
pest or weed control at 500 g/ha (%): 0

molecule: O=C1NCC[C@H](c2ccc(F)cc2)[C@H]1C(=O)Nc1ccccc1C(F)(F)F
pest or weed control at 500 g/ha (%): 0

molecule: O=C1NCCC(c2ccc(C(F)(F)F)cc2)C1C(=O)Nc1ccccc1Cl (stereo not shown)
pest or weed control at 500 g/ha (%): 0

molecule: CN1CC[C@H](c2ccc(F)cc2)[C@@H](C(=O)Nc2cccc(F)c2F)C1=O
pest or weed control at 500 g/ha (%): 80

// below: pest or weed control at 500 g/ha requested for another molecule
### Prompt What value of pest or weed control at 500 g/ha has been recorded for this entry: O=C1NCCC(c2ccc(C(F)(F)F)cc2)C1C(=O)Nc1ccccc1F (stereo not shown)
### Response 0

---

# Tested on: ryegrass, Italian (Italian ryegrass, Lolium multiflorum)
# assay explanation: Test A postemergence ryegrass, Italian
# Assay type: in vivo
# particulars: 500 g ai/ha, 0 to 100 scale, 0 is no effect, 100 is complete control
parameter measured: Plant response rating, Ryegrass, Italian
Numbers only.

For orientation, consider the following solved cases.
compound: O=C1NCC[C@@H](c2cccc(Cl)c2)[C@@H]1C(=O)Nc1cccc(F)c1F
Plant response rating, Ryegrass, Italian: 0
//
compound: O=C1NCCC(c2cccc(C(F)(F)F)c2)C1C(=O)Nc1ccc(F)c(F)c1F (racemic)
Plant response rating, Ryegrass, Italian: 0
//
compound: O=C1NCCC(c2cccc(OC(F)F)c2)C1C(=O)Nc1ccccc1F (racemic)
Plant response rating, Ryegrass, Italian: 0
//
compound: O=C1NCCC(c2ccccc2C(F)(F)F)C1C(=O)Nc1ccccc1C(F)(F)F (racemic)
Plant response rating, Ryegrass, Italian: 0
//
compound: O=C1NCC[C@@H](c2cccc(C(F)(F)F)c2)[C@@H]1C(=O)Nc1cccc(Cl)c1F
Plant response rating, Ryegrass, Italian: 20
//
compound: O=C1NCCC(c2cccc(Cl)c2)C1C(=O)Nc1ccccc1C(F)(F)F (racemic)
Plant response rating, Ryegrass, Italian: 0
//
compound: O=C1NCCC(c2cccc(OC(F)F)c2)C1C(=O)Nc1cccc(F)c1F (racemic)
Plant response rating, Ryegrass, Italian: 0
//
compound: O=C1NCC[C@@H](c2ccc(C(F)(F)F)cc2)[C@@H]1C(=O)Nc1cccc(F)c1F
Plant response rating, Ryegrass, Italian: 20

Quick batch: Plant response rating, Ryegrass, Italian for everything below.
1. Cc1c(F)cccc1NC(=O)C1C(=O)NCCC1c1cccc(C(F)(F)F)c1 (racemic)
2. O=C1NCCC(c2cccc(C(F)(F)F)c2)C1C(=O)Nc1cccc(Cl)c1F (racemic)
3. O=C1NCCC(c2ccc(C(F)(F)F)cc2)C1C(=O)Nc1cccc(F)c1Cl (racemic)
4. O=C1NCCC(c2cccc(C(F)(F)F)c2)C1C(=O)Nc1cccc(Cl)c1Cl (racemic)
5. CS(=O)(=O)c1ccccc1NC(=O)C1C(=O)NCCC1c1cccc(C(F)(F)F)c1 (racemic)
6. O=C1NCCC(c2ccc(C(F)(F)F)cc2)C1C(=O)Nc1ccccc1C(F)(F)F (racemic)
7. O=C1NCCC(c2cccc(C(F)(F)F)c2)C1C(=O)Nc1ccccc1Cl (racemic)
8. O=C1NCC[C@@H](c2ccc(C(F)(F)F)cc2)[C@@H]1C(=O)Nc1ccc(F)c(F)c1F

### Response
1. 20
2. 20
3. 0
4. 0
5. 20
6. 0
7. 20
8. 0
